# target_or_test_system: JAK2 (Homo sapiens (Human), UniProt O60674)
# Sequence (O60674 whole entry): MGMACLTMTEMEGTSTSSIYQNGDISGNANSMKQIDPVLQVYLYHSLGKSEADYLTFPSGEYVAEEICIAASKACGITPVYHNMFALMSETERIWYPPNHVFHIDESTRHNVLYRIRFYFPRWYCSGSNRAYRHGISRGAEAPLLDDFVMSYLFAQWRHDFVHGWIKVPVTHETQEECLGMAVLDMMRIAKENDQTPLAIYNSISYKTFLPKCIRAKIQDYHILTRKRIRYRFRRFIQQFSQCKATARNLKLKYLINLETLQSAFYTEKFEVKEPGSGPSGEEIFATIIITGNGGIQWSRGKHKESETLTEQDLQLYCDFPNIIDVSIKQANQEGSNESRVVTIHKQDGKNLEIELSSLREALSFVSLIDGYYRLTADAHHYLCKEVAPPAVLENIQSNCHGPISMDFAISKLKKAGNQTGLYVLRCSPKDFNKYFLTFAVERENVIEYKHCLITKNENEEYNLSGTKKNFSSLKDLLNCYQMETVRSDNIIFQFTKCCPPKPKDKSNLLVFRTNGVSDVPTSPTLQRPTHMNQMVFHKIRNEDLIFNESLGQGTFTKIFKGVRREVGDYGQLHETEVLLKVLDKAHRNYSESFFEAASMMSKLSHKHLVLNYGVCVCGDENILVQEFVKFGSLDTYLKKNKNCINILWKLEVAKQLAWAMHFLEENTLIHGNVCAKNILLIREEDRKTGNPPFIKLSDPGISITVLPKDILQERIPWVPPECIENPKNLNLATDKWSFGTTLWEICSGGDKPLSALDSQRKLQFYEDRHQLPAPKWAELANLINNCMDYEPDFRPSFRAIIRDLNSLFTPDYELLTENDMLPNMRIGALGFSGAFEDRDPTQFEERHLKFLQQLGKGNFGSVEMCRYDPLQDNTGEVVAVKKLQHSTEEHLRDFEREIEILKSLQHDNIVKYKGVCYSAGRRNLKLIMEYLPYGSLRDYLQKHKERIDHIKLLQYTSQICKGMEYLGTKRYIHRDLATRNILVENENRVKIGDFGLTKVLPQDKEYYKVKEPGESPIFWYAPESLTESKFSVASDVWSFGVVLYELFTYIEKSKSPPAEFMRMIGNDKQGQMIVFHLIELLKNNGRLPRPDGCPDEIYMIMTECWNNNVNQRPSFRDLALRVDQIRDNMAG
# test_details: TR-FRET JAK2 kinase assay
# Format: biochemical
# experimental_context: read-out: JAK2 % inhibition at 100 nM; 100 nM; ATP 10 μM
value_type: inhibition at 0.1 µM (%)

compound: Cc1ccc(NC(=O)CCC(F)(F)F)cc1N1CCc2nc(Nc3ccc(C(=O)N4CCN(C)CC4)cc3)ncc2C1 [Compound 164]
result_unit: %
inhibition at 0.1 µM: 68

compound: CNC(=O)c1ccc(Nc2ncc3c(n2)CCN(c2cc(NC(=O)c4cccc(C(F)(F)F)c4)ccc2Cl)C3)cc1 [Compound 176]
result_unit: %
inhibition at 0.1 µM: 89

compound: Cc1ccc(NC(=O)CC2CCCC2)cc1N1CCc2nc(Nc3ccc(OCCN4CCCC4)cc3)ncc2C1 [Compound 108]
result_unit: %
inhibition at 0.1 µM: 89

compound: Cc1ccc(NC(=O)c2cccc(C(F)(F)F)c2)cc1N1CCc2nc(Nc3ccc(C(=O)NCCCN4CCCC4)cc3)ncc2C1=O [Compound 77]
result_unit: %
inhibition at 0.1 µM: 80

compound: Cc1ccc(NC(=O)CCC(F)(F)F)cc1N1CCc2nc(Nc3ccc(OCCN4CCCC4)cc3)ncc2C1 [Compound 147]
result_unit: %
inhibition at 0.1 µM: 88

compound: Cc1ccc(NC(=O)c2ccc(C(F)(F)F)s2)cc1N1CCc2nc(Nc3ccc(OCCN4CCCC4)cc3)ncc2C1 [Compound 106]
result_unit: %
inhibition at 0.1 µM: 85

compound: Cc1ccc(NC(=O)c2cc(C(F)(F)F)ccn2)cc1N1CCc2nc(Nc3ccc(C(=O)N4CCN(C)CC4)cc3)ncc2C1 [Compound 167]
result_unit: %
inhibition at 0.1 µM: 95

compound: CN1CCN(c2ccc(Nc3ncc4c(n3)CCN(c3cc(NC(=O)c5cc(F)cc(C(F)(F)F)c5)ccc3Cl)C4=O)cc2)CC1 [Compound 172]
result_unit: %
inhibition at 0.1 µM: 94

compound: Cc1ccc(NC(=O)N2CCCCC2)cc1N1CCc2nc(Nc3ccc(OCCN4CCCC4)cc3)ncc2C1 [Compound 107]
result_unit: %
inhibition at 0.1 µM: 72

###

# target_or_test_system: c-Src (Homo sapiens (Human), UniProt P12931)
# Sequence (P12931 whole entry, looked up): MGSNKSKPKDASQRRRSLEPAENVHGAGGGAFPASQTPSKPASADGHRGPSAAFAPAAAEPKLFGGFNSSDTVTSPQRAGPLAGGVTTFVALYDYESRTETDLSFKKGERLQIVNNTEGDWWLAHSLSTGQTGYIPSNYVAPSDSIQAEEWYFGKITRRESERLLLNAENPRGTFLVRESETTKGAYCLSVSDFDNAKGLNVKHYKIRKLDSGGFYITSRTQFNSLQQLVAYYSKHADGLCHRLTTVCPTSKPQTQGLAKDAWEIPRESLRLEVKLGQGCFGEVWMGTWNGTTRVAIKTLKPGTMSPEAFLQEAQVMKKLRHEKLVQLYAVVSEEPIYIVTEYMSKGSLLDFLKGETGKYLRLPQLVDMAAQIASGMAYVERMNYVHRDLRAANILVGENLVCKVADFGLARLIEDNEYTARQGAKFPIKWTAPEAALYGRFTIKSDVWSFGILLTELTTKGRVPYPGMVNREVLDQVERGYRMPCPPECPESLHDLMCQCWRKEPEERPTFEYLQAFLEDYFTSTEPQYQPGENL
# test_details: TR-FRET c-Src kinase assay
# Type: biochemical
# experimental_context: read-out: c-SRC % inhibition at 100 nM; 100 nM; ATP 50 μM
value_type: inhibition at 0.1 µM (%)

compound: CNC(=O)c1ccc(Nc2ncc3c(n2)CCN(c2cc(NC(=O)c4cccc(C(F)(F)F)c4)ccc2Cl)C3)cc1 [Compound 176]
inhibition at 0.1 µM, %: 87
//
compound: CNC(=O)c1ccc(Nc2ncc3c(n2)CCN(c2cc(NC(=O)c4cc(F)cc(C(F)(F)F)c4)ccc2Cl)C3)cc1 [Compound 177]
inhibition at 0.1 µM, %: 86
//
compound: Cc1ccc(NC(=O)c2cccc(C(F)(F)F)c2)cc1N1CCc2nc(Nc3ccc(OCCCN4CCN(C)CC4)cc3)ncc2C1=O [Compound 180]
inhibition at 0.1 µM, %: 66

###

# target_or_test_system: JAK2 (Homo sapiens (Human), UniProt O60674)
# test_details: TR-FRET JAK2 kinase assay
# Assay type: biochemical
# experimental_context: read-out: JAK2 % inhibition at 1 μM; 1 μM; ATP 10 μM
value_type: inhibition at 1 µM (%)

smiles_string: Cc1ccc(NC(=O)c2cccc(C(F)(F)F)c2)cc1N1CCc2nc(Nc3ccc(S(=O)(=O)NC4CC4)cc3)ncc2C1
result: 93

smiles_string: Cc1cc(Nc2ncc3c(n2)CCN(c2cc(NC(=O)c4cccc(C(F)(F)F)c4)ccc2Cl)C3=O)ccc1N1CCN(C)CC1
result: 97

smiles_string: CNC(=O)c1ccc(Nc2ncc3c(n2)CCN(c2cc(NC(=O)c4cccc(C(F)(F)F)c4)ccc2Cl)C3)cc1
result: 94

Values compiled from patent US8962637B2.
